Origin of the recorded values: patent US20250154154A1

test system: phospho-S6RP (Ser 235/236) in RBE cells; test: Cellular Proliferation Protocol (cellular phospho-S6RP HTRF), RBE cells; assay type: cell-based; conditions: 6 hours treatment, RBE or SNU-1079 cells, cell line not given
pIC50: −log10 of the molar value.
pIC50 values, listed per item

Solved cases (4 shown):
- C=CC(=O)N1C[C@@H]2[C@@H](C#Cc3c(-c4ccc(Oc5cccc(C)n5)c(OC)c4)c4c(N)ncnc4n3CS(C)(=O)=O)[C@@H]2C1: 6.00 to 8.00
- C=CC(=O)N1C[C@@H]2[C@@H](C#Cc3c(-c4cccc5c4OCO5)c4c(N)ncnc4n3C(C)C)[C@@H]2C1: ≥ 8.00
- C=CC(=O)N1CCC(N2CC(C#Cc3c(-c4ccc(C5CC5)cc4)c4c(N)ncnc4n3C)C2)CC1: 6.00 to 8.00
- C=CC(=O)N1CCC(N2CC(C#Cc3c(-c4ccc(Oc5ccccc5)c(OC)n4)c4c(N)ncnc4n3C)C2)CC1: 6.00 to 8.00

// below: pIC50 requested for another compound
Enter pIC50 (test system phospho-S6RP (Ser 235/236) in RBE cells) for C=CC(=O)N1CC[C@@H](N2CC(C#Cc3c(-c4cccc(OC)n4)c4c(N)ncnc4n3C)C2)[C@@H](O)C1
6.00 to 8.00
